# procedure.text: NCI Yeast Anticancer Drug Screen. Data for the mec2-1 strain (AID 157)
# run.parameters: S. cerevisiae mec2-1 strain, at 50.0 µM (retest, dose inferred, filed as 5.0)
The panel holds about 79,000 compounds, 15% with a hit somewhere; the sample as a whole holds those more often. Active and inactive are the calls of the source. Rule as the data show it: active = growth inhibition above about 70%; inactive = the rest.
Outcomes: 1.0 (active), 0.0 (inactive)

{"compound": "CCOc1ccc(C(OC)OC)cc1[N+](=O)[O-]", "category": 0.0}
{"compound": "CN(C)CC(C)(CN(C)C)C(=O)/C=C/c1ccc(Cl)c(Cl)c1", "category": 1.0}
{"compound": "CCn1c(=O)cc2n(C)c3ccccc3n2c1=O", "category": 0.0}
{"compound": "CC(=O)N(/C=C\\c1sc2ccccc2[n+]1C)c1ccccc1", "category": 1.0}
{"compound": "CNc1ccc(F)cc1SSc1cc(F)ccc1NC", "category": 1.0}
{"compound": "c1ccc2c(c1)Cc1cc3ccccc3nc1-2", "category": 1.0}
{"compound": "CCN(C(=O)c1ccccc1C)C(c1ccccc1)P(=O)(c1ccccc1)c1ccccc1 (stereo unspecified)", "category": 1.0}
{"compound": "COc1cc[c]([Sn]([c]2ccc(OC)cc2)([c]2ccc(OC)cc2)[c]2ccc(OC)cc2)cc1", "category": 0.0}
{"compound": "COc1c(O)ccc2c1CN1CCc3cc4c(cc3C1C2)OCO4 (stereo unspecified)", "category": 0.0}
{"compound": "Cn1ncc2c(Nc3ccccc3)nc(Nc3ccccc3)nc21", "category": 0.0}
{"compound": "O=C1c2ccccc2C(=O)c2c(OCCOCCO)cccc21", "category": 0.0}
{"compound": "C[C@]12CC[C@@H]3c4ccc(O)cc4CC[C@H]3[C@@H]1CC[C@@H]2NCCCCCCO", "category": 0.0}
{"compound": "CN1CC[C@@H](c2ccccc2)[C@@H](O)C1", "category": 0.0}
{"compound": "CC1(c2ccc(O)cc2)CC(C)(c2ccc(O)cc2)C1 (stereo unspecified)", "category": 1.0}
{"compound": "CCS(=O)(=O)C(C(O)C(O)C(O)C(O)CO)S(=O)(=O)CC (stereo unspecified)", "category": 0.0}
{"compound": "C=[CH][Sn]([CH]=C)([S]c1cccc2cccnc12)[S]c1cccc2cccnc12", "category": 1.0}
{"compound": "Cc1cc(Br)cc(C(=O)Cl)c1O", "category": 0.0}
{"compound": "c1nc2nc(N3CCOCC3)nc(N3CCCCC3)c2[nH]1", "category": 0.0}
{"compound": "COc1cc(NCCCCCCCC2CCCCN2)c2ncccc2c1 (stereo unspecified)", "category": 1.0}
{"compound": "S=C1NC2=C(CSC/C2=C\\c2ccccc2)C(c2ccccc2)N1 (stereo unspecified)", "category": 1.0}
{"compound": "CCCCCCC[n+]1ccc(C(=O)c2ccccc2)cc1", "category": 1.0}
{"compound": "CN(C)c1ccc(/C=C/c2nc3ccccc3[nH]2)cc1", "category": 1.0}
{"compound": "N#CS/C=C/SC#N", "category": 1.0}
{"compound": "CCC(CO)Nc1nc2cc(Br)ccc2c2ccc(Br)cc12 (stereo unspecified)", "category": 1.0}
{"compound": "COc1nc2c(ccn2C2OC(COC(C)=O)C(OC(C)=O)C(OC(C)=O)C2OC(C)=O)c(=O)n1C (stereo unspecified)", "category": 0.0}
{"compound": "S=C(SSSSC(=S)N1CCCCC1)N1CCCCC1", "category": 1.0}
{"compound": "CCN(CC)CC(O)CNc1cc(C)nc(/N=C(\\N)Nc2ccc(Cl)c(Cl)c2)n1 (stereo unspecified)", "category": 0.0}
{"compound": "Cc1ccc(C(=O)C(CN(C)C)CN(C)C)cc1", "category": 0.0}
{"compound": "CCCCCCCCNc1nc(Cl)nc2c1cnn2C", "category": 0.0}
{"compound": "OCC(O)Cc1c(Cl)c(Cl)c(Oc2c(Cl)c(Cl)c(CC(O)CO)c(Cl)c2Cl)c(Cl)c1Cl (stereo unspecified)", "category": 0.0}
{"compound": "Clc1nn2nnnc2c2ccccc12", "category": 1.0}
{"compound": "CC(C)OC1=C(Cl)C(=O)c2c(cccc2[N+](=O)[O-])C1=O", "category": 1.0}
{"compound": "COC(=O)c1cccc2c1C(=O)c1ccccc1-2", "category": 0.0}
{"compound": "CCCC/C(=C\\c1cc(Cl)c(O)c(Cl)c1)C(=O)O", "category": 1.0}
{"compound": "Cc1c2ccccc2c(CO)c2cc(F)c3ccccc3c12", "category": 1.0}
{"compound": "CN(C)CCCN1c2ccc3ccccc3c2Sc2cccc(Cl)c21", "category": 1.0}
{"compound": "COc1ccc(C2C3CCCC(C(c4ccc(OC)cc4)N2C)C32NC(=O)NC2=O)cc1 (stereo unspecified)", "category": 1.0}
{"compound": "CC(C)c1ncc(-c2ccccc2)cc1-c1ccccc1", "category": 1.0}
{"compound": "CCOC(=O)C1=C(C)Oc2cc3c(cc2C1c1cc(OC)c(OC)c(OC)c1)OCO3 (stereo unspecified)", "category": 0.0}
{"compound": "Cc1cccc(Cc2ccc(Cl)cc2)c1O", "category": 1.0}
{"compound": "Cc1cc(C(O)(c2cc(C)c(O)c(C(=O)O)c2)c2cc(C)c(O)c(C(=O)O)c2)cc(C(=O)O)c1O", "category": 0.0}
{"compound": "Oc1ccc2c(c1)Cc1ccccc1-2", "category": 0.0}
{"compound": "Cc1cccc(-c2csc(N)n2)c1", "category": 0.0}
{"compound": "Cc1nn(-c2ccc(S(=O)(=O)[O-])cc2)c([O-])c1N=[N+](C)c1ccc(-c2ccc(N=Nc3ccc4c(S(=O)(=O)[O-])cc(S(=O)(=O)[O-])c(N)c4c3[O-])c([O-])c2)cc1[O-].[Cu+2].[Cu+2].[Na+]", "category": 0.0}
{"compound": "O=C1/C(=C/c2ccccc2)CNC/C1=C\\c1ccccc1", "category": 1.0}
{"compound": "S=c1ncc2c([nH]1)C1c3ccccc3C2c2ccccc21", "category": 1.0}

###

# procedure.text: NCI Yeast Anticancer Drug Screen. Data for the sgs1 mgt1 strain (AID 161);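 also: 0% = growth of cultures given vehicle only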
# run.parameters: S. cerevisiae sgs1 mgt1 strain, at 50.0 µM, hits give high values
# Protocol: Growth inhibition of yeast strains with defined genetic alterations is measured as a screen for potential anti-cancer activity. Selected strains with alterations in DNA damage repair or cell cycle control were exposed to compounds and growth inhibition was measured relative to vehicle treated controls. The strain used in this assay is sgs1 mgt1
This is part of a sample that, as a whole, favours compounds with a hit. Of some 79,000 tested, about 15% had one in any assay.
Please use the following growth inhibition ranges when assigning a class: lower range (below 50%), middle range (50% to below 90%), upper range (90% or more)

{"compound": "CCN(CC)CC(O)c1ccc2cc(Cl)c3ccccc3c2c1 (stereo unspecified)", "category": "upper range"}
{"compound": "ClC1c2ccccc2Cc2cccnc21 (stereo unspecified)", "category": "lower range"}
{"compound": "Cc1cc(NC(=S)SCc2ccc(F)cc2)c([N+](=O)[O-])cc1C", "category": "upper range"}
{"compound": "CN(C)CC/[N+]([O-])=C(/c1ccccc1)C12CC3CC(CC(C3)C1)C2", "category": "lower range"}
{"compound": "COC(=O)/C(=N\\NC(=O)c1ccccc1O)C(C#N)c1ccc(Cl)cc1 (stereo unspecified)", "category": "middle range"}
{"compound": "COc1ccccc1C(=O)Nc1ccc(Cl)c(C(=O)OC(C)C)c1", "category": "middle range"}
{"compound": "COC(=O)CCCCCOS(=O)(=O)c1ccc(C)cc1", "category": "lower range"}
{"compound": "CCC1(CC(=O)O)OCCc2c1[nH]c1c(C)c(Cl)ccc21 (stereo unspecified)", "category": "upper range"}
{"compound": "O=C(O)Cc1cccc2c(=O)c3cccc([N+](=O)[O-])c3[nH]c12", "category": "middle range"}

###

growth inhibition: recorded values
# procedure.text: NCI Yeast Anticancer Drug Screen. Data for the mlh1 rad18 strain (AID 175)
# run.parameters: S. cerevisiae mlh1 rad18 strain growth inhibition; at 50.0 µM (retest, dose inferred, filed as 5.0); hits give high values
Compounds without any hit were thinned out: in the full panel of roughly 79,000, 15% have a hit.
metric.name: growth inhibition (%)

{"compound": "Clc1ccc(COC(CN2CCOCC2)c2ccccc2)c(Cl)c1 (stereo not given)", "output.unit": "%", "observed": 87}
{"compound": "O=C(OCc1ccc2c(c1)OCO2)c1ccc(Cl)cc1", "output.unit": "%", "observed": 57}
{"compound": "Cc1cnc2cccc(Cl)c2c1Cl", "output.unit": "%", "observed": 31}
{"compound": "O=c1c(O)cc2c(O)oc3c(=O)c(O)c(O)c4c(O)oc1c2c43", "output.unit": "%", "observed": 96}
{"compound": "C#CCN(N=O)C(=O)NCCCC(NC(C)=O)C(=O)NCc1ccccc1 (stereo not given)", "output.unit": "%", "observed": 42}
{"compound": "CC(C)N=Cc1cc(Br)cc(Br)c1O.CC(C)N=Cc1cc(Br)cc(Br)c1O.[Co]", "output.unit": "%", "observed": 99}
{"compound": "COc1ccccc1C(C)c1ccc2ccccc2c1C(=O)O (stereo not given)", "output.unit": "%", "observed": 94}
{"compound": "O=C(N/N=C/c1ccc2c(c1)OCO2)c1ccc([N+](=O)[O-])cc1", "output.unit": "%", "observed": 13}
{"compound": "COC(=O)CCCCCOS(=O)(=O)c1ccc(C)cc1", "output.unit": "%", "observed": -8}
{"compound": "OC(OC/C(I)=C(/I)COC(O)C(Cl)(Cl)Cl)C(Cl)(Cl)Cl (stereo not given)", "output.unit": "%", "observed": 95}
{"compound": "CC(C=O)=C(c1ccccc1)c1ccccc1", "output.unit": "%", "observed": -111}
{"compound": "CC(C)=CC1C(COC(=O)CCl)C1(C)C (stereo not given)", "output.unit": "%", "observed": 5}
{"compound": "Cc1cc(Br)ccc1NC(=O)/C=C/C(=O)O", "output.unit": "%", "observed": -16}
{"compound": "O=C(CC(C[N+](=O)[O-])c1ccc2c(c1)OCO2)c1ccccc1 (stereo not given)", "output.unit": "%", "observed": 9}
{"compound": "O=c1c(Cl)cc2nc3ccccc3sc-2c1Cl", "output.unit": "%", "observed": 87}
{"compound": "CN(CCCN(CCO)CCO)C1CC(C)(C)N(O)C(C)(C)C1", "output.unit": "%", "observed": 9}
{"compound": "C/C=C\\C=N\\NC(N)=S", "output.unit": "%", "observed": 1}
{"compound": "O=NN(CCCl)C(=O)Nc1cc(=O)[nH]c(SCc2ccccc2)n1", "output.unit": "%", "observed": 70}
{"compound": "C(=C\\c1cnnc2ccccc12)/c1cccnc1", "output.unit": "%", "observed": 36}
{"compound": "CCN(CC)CCOc1ccc(C(O)(Cc2ccc(Cl)cc2)c2ccccc2)cc1 (stereo not given)", "output.unit": "%", "observed": 89}
{"compound": "CCN(CC)CC(O)c1ccc2cc(Cl)c3ccccc3c2c1 (stereo not given)", "output.unit": "%", "observed": 99}
{"compound": "COc1ccccc1NC(=O)CC(=O)N1N=C(C)C(N=Nc2ccc(I)cc2)C1=O (stereo not given)", "output.unit": "%", "observed": 41}
{"compound": "COC(=O)/N=C/CCC(O)NC(=O)OC (stereo not given)", "output.unit": "%", "observed": 4}
{"compound": "CC(C)CCCC(O)CNCc1ccccc1 (stereo not given)", "output.unit": "%", "observed": 15}
{"compound": "Cc1ccc(S(=O)(=O)N2CCN(C)CC2)cc1", "output.unit": "%", "observed": 49}
